# TARGET OR SYSTEM: LPA5 receptor (Homo sapiens (Human), UniProt Q9H1C0)
# Sequence (Q9H1C0 whole entry): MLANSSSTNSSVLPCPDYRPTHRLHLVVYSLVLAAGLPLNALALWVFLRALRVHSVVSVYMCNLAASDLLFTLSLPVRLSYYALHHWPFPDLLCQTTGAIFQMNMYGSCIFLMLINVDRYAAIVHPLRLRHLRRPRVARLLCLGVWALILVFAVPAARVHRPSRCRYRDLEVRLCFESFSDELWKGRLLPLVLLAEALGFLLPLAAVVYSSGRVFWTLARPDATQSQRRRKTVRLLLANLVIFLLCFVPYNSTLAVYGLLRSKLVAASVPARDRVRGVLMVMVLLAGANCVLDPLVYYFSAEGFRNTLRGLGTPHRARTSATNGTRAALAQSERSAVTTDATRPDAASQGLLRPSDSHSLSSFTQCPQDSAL
# PROTOCOL DETAILS: In vitro LPA5 receptor assay (LPA-driven intracellular calcium release, FLIPR)
# CONDITION SUMMARY: RH7777 cells expressing human LPA5 receptors; LPA at EC90
READOUT LABEL: IC50 (nM)

Query :: Observed IC50 on LPA5 receptor (Homo sapiens (Human), UniProt Q9H1C0) for Cc1ccccc1Oc1ccc(C(=O)N(Cc2ccccc2)Cc2ccc(C(=O)O)cc2)cc1 , please.
Result :: 7

Query :: Enter reported IC50 observed with LPA5 receptor (Homo sapiens (Human), UniProt Q9H1C0) for O=C(O)c1ccc(CN(CC2CCC2)C(=O)c2ccc(OCc3ccccc3F)cc2)cc1
Result :: 370

Query :: LPA5 receptor (Homo sapiens (Human), UniProt Q9H1C0) / IC50 / COc1ccccc1Oc1ccc(C(=O)N(Cc2ccc(C(=O)O)cc2)CC2CC2)c(F)c1 : value?
Result :: 5

Query :: Look up IC50 with LPA5 receptor (Homo sapiens (Human), UniProt Q9H1C0) for this compound: O=C(O)c1ccc(CN(CC2CC2)C(=O)c2ccc(Oc3ccccc3F)cc2F)cc1
Result :: 26

Query :: Query IC50 on LPA5 receptor (Homo sapiens (Human), UniProt Q9H1C0) for Cc1cccc(F)c1Oc1ccc(C(=O)N(Cc2ccc(C(=O)O)cc2)CC2CCC2)cc1
Result :: 89

Query :: Requested read-out IC50, target or system LPA5 receptor (Homo sapiens (Human), UniProt Q9H1C0), entry Cc1cccc(C)c1Oc1ccc(C(=O)N(CCC(C)C)Cc2ccc(C(=O)O)cc2)cc1
Result :: 99

[a] Cc1ccccc1Oc1ccc(C(=O)N(CCc2ccccc2)Cc2ccc(C(=O)O)cc2)cc1
[b] O=C(O)c1ccc(CN(CC2CC2)C(=O)c2ccc(Oc3ccccc3F)cn2)cc1
Query :: Of a and b , which shows the smaller IC50 value? // caller expects the label of the chosen entry
Result :: a
(a: 29 nM, b: 74 nM)

* * *

# TARGET OR SYSTEM: human LPA1 receptors (Homo sapiens (Human), UniProt Q92633)
# Sequence (Q92633 whole entry): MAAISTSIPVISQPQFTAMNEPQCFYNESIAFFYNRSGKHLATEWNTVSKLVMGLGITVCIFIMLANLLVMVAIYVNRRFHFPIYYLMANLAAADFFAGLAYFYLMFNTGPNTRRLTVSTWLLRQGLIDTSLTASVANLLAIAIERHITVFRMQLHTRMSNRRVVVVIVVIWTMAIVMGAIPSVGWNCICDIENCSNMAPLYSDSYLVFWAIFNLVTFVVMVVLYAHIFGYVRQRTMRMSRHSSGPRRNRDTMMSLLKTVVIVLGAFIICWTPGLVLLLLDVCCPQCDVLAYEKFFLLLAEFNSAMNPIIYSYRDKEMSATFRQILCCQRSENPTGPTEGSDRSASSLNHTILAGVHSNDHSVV
# PROTOCOL DETAILS: In vitro LPA1 receptor assay (LPA-driven intracellular calcium release, FLIPR)
# CONDITION SUMMARY: RH7777 cells expressing human LPA1 receptors; LPA at EC80
pIC50: −log10 of the molar value.
READOUT LABEL: pIC50

[1] O=C(O)c1ccc(CN(CC(F)F)C(=O)c2ccc(Oc3ccccc3Cl)cc2)cc1 [Example 78]
[2] COc1ccccc1Oc1ccc(C(=O)N(Cc2ccc(C(=O)O)cc2)CC(C)(F)F)cc1 [Example 63]
[3] CCN(Cc1ccc(C(=O)O)cc1)C(=O)c1ccc(Oc2ccccc2Cl)cc1 [Example 76]
Query :: Ranking request: pIC50, max to min, items above. Put the labels in the requested order and list them out.
Result :: 2, 3, 1

[a] O=C(O)c1ccc(CN(C[C@@H](O)Cc2ccccc2)C(=O)c2ccc(Oc3ccccc3F)cc2)cc1 [Example 19]
[b] COc1ccccc1Oc1ccc(C(=O)N(Cc2ccc(C(=O)O)cc2)CC(C)C)cc1 [Example 30]
[c] CCN(Cc1ccc(C(=O)O)cc1)C(=O)c1ccc(Oc2ccccc2C)cc1 [Example 73]
[d] COc1ccccc1Oc1ccc(C(=O)N(Cc2ccc(C(=O)O)cc2)CC2CC2)cc1 [Example 31]
[e] O=C(O)c1ccc(CN(CC2CC2)C(=O)c2ncc(Oc3ccccc3F)cn2)cc1 [Example 83]
Query :: Form: Sort by [pIC50] Order [ ascending ] To answer, arrange all of the labels according to the requested order.
Result :: e, c, b, a, d

[1] Cc1ccccc1Oc1ccc(C(=O)N(Cc2ccccc2)Cc2ccc(C(=O)O)cc2)cc1 [Example 24]
[2] COc1ccc(F)cc1Oc1ccc(C(=O)N(Cc2ccc(C(=O)O)cc2)CC2CC2)cc1 [Example 79]
[3] COc1ccccc1Oc1cnc(C(=O)N(Cc2ccc(C(=O)O)cc2)CC2CC2)nc1 [Example 84]
Query :: Endpoint returns the given molecules ordered by ascending pIC50. I'd appreciate it if you listed the labels in the requested order.
Result :: 3, 2, 1

[1] COc1cc(F)ccc1Oc1ccc(C(=O)N(Cc2ccc(C(=O)O)cc2)CC2CC2)cc1 [Example 68]
[2] CCCN(Cc1ccc(C(=O)O)cc1)C(=O)c1ccc(Oc2ccccc2F)cc1 [Example 60]
[3] O=C(O)c1ccc(CN(CCC(F)(F)F)C(=O)c2ccc(Oc3ccccc3F)cc2)cc1 [Example 71]
[4] COc1ccccc1Oc1ccc(C(=O)N(Cc2ccc(C(=O)O)cc2)CC(F)(F)F)cc1 [Example 61]
[5] COc1cccc(F)c1Oc1ccc(C(=O)N(Cc2ccc(C(=O)O)cc2)CC2CC2)cc1 [Example 67]
Query :: Order the records by pIC50, with each subsequent value no larger than the one before. // list labels; follow requested order
Result :: 4, 5, 1, 2, 3

* * *

# TARGET OR SYSTEM: human LPA1 receptors (Homo sapiens (Human))
# PROTOCOL DETAILS: In vitro LPA1 receptor assay (LPA-driven intracellular calcium release, FLIPR)
# Type: cell-based
# CONDITION SUMMARY: RH7777 cells expressing human LPA1 receptors; LPA at EC80
READOUT LABEL: IC50 (µM)

[I] Cc1cccc(F)c1Oc1ccc(C(=O)N(Cc2ccc(C(=O)O)cc2)CC2CC2)cc1 [Example 40]
[II] Cc1ccccc1Oc1ccc(C(=O)N(Cc2ccc(C(=O)O)cc2)CC2CC2)cc1 [Example 22]
[III] O=C(O)c1ccc(CN(CC2CC2)C(=O)c2ccc(Oc3ccccc3F)cc2)cc1 [Example 5]
[IV] O=C(O)c1ccc(CN(Cc2ccccc2)C(=O)c2ccc(Oc3ccccc3F)cc2)cc1 [Example 11]
Query :: Sort the listed compounds above so the one with the largest IC50 comes first and the smallest comes last. Answer format: the labels, in the requested order.
Result :: I, III, II, IV

* * *

# TARGET OR SYSTEM: human LPA1 receptors (Homo sapiens (Human))
# PROTOCOL DETAILS: In vitro LPA1 receptor assay (LPA-driven intracellular calcium release, FLIPR)
# CONDITION SUMMARY: RH7777 cells expressing human LPA1 receptors; LPA at EC80
pIC50: −log10 of the molar value.
READOUT LABEL: pIC50

[A] O=C(O)c1ccc(CN(CCCc2cccc(F)c2)C(=O)c2ccc(Oc3ccccc3F)cc2)cc1
[B] O=C(O)c1ccc(CN(CCc2ccccc2)C(=O)c2ccc(Oc3ccccc3Cl)cc2)cc1
Query :: Decide: A or B , by lowest recorded pIC50. Let me know the label of the one you choose.
Result :: B
(B: 7.62, A: 9.40)

* * *

# TARGET OR SYSTEM: LPA5 receptor (Homo sapiens (Human), UniProt Q9H1C0)
# PROTOCOL DETAILS: In vitro LPA5 receptor assay (LPA-driven intracellular calcium release, FLIPR)
# CONDITION SUMMARY: RH7777 cells expressing human LPA5 receptors; LPA at EC90
READOUT LABEL: IC50 (nM)

Query :: Fill blank: measured IC50 of the molecule O=C(O)c1ccc(CN(Cc2ccccc2)C(=O)c2ccc(Oc3ccccc3F)cc2)cc1 is ____.
Result :: 6

[I] COc1ccc(Oc2ccc(C(=O)N(CCc3ccccc3)Cc3ccc(C(=O)O)cc3)cc2)cc1
[II] COc1ccccc1Oc1cnc(C(=O)N(Cc2ccc(C(=O)O)cc2)CC2CC2)nc1
Query :: // which entry reports the smaller IC50, I or II ? Your choice should be expressed through its label.
Result :: II

[1] Cc1cccc(C)c1Oc1ccc(C(=O)N(CCc2ccccc2)Cc2ccc(C(=O)O)cc2)cc1
[2] O=C(O)c1ccc(CN(CCc2ccccc2)C(=O)c2ccc(Oc3ccccc3C(F)(F)F)cc2)cc1
[3] O=C(O)c1ccc(CN(CCC2CC2)C(=O)c2ccc(Oc3c(F)cccc3F)cc2)cc1
[4] CCCN(Cc1ccc(C(=O)O)cc1)C(=O)c1ccc(Oc2ccc(F)cc2OC)cc1
[5] CCCCN(Cc1ccc(C(=O)O)cc1)C(=O)c1ccc(Oc2ccccc2F)cc1
Query :: Sort by IC50, descending. # answer = labels listed in requested order
Result :: 2, 3, 4, 5, 1

[I] O=C(O)c1ccc(CN(Cc2ccccc2)C(=O)c2ccc(Oc3c(F)cccc3F)cc2)cc1
[II] O=C(O)c1ccc(CN(CCc2ccccc2)C(=O)c2ccc(Oc3ccccc3F)cc2)cc1
Query :: Field: lower IC50 | Options: I / II // respond with label for picked entry
Result :: I

[I] O=C(O)c1ccc(CN(CCC2CC2)C(=O)c2ccc(Oc3ccccc3F)cc2)cc1
[II] O=C(O)c1ccc(CN(C[C@@H](O)Cc2ccccc2)C(=O)c2ccc(Oc3ccccc3F)cc2)cc1
[III] CCN(Cc1ccc(C(=O)O)cc1)C(=O)c1ccc(Oc2ccccc2C)cc1
Query :: Hey, quick one: sort these by IC50, low to high? List the labels according to the requested ordering.
Result :: II, I, III
